# Tested on: U251 CNS
The reply should be one of these categories: true (1) for active, false (0) for inactive

{"Structure Smiles": "O=C1C(Nc2ccccn2)=C(I)C(=O)c2ncccc21", "Label Class": "false (0)"}
{"Structure Smiles": "Nc1ccc(-c2ccc(-c3nc4ccccc4[nH]3)cc2)cc1", "Label Class": "false (0)"}
{"Structure Smiles": "O=S(=O)(Nc1ccc(Cl)c(C(F)(F)F)c1)c1ccc(-c2cnc(C3CC3)o2)cc1", "Label Class": "true (1)"}

With those in mind, consider the next compound.
Fill in: this test's call for "COc1cc2cc(C(=O)O)[nH]c2cc1OCc1ccccc1" is ___
false (0)

###

# System: UO-31 renal
# Experiment Notes: NCI tumour cell line growth inhibition, 48 h; in the data active = GI50 below about 0.43 µM; inactive = the rest
Would you mind answering with one of these outcomes? active, inactive

Below, 3 compounds whose answers are already recorded.
{"Compound": "C/C=C(/C)C(=O)OC1C=C(CO)C(=O)C(OC(=O)/C(C)=C\\C)C1C(C)C (centres undefined)", "Label Class": "inactive"}
{"Compound": "CCN(C)S(=O)(=O)Nc1cccc(Nc2ncnc3cc(NC(=O)CCl)ccc23)c1Cl", "Label Class": "inactive"}
{"Compound": "N#CC1=C(N)Oc2c(sc3c(F)cccc23)C1c1ccc([N+](=O)[O-])cc1 (centres undefined)", "Label Class": "active"}

Please examine the following record next.
Give the logged outcome of this assay for the following compound: O=c1cccc(C#CCCCCOC2CCCO2)o1 (centres undefined)
inactive

###

Hi there, I'd appreciate the recorded TGI for every entry that follows.
# System: CAKI-1 renal
# Experiment Notes: NCI tumour cell line growth inhibition, 48 h

Use these answered entries as a reference point.
{"Compound": "O=C1OC(=O)C2C3CCC(O3)C12 (stereo not given)", "System": "CAKI-1 renal", "TGI": "> 100 µM"}
{"Compound": "CC(C)NC(C)Cc1ccccc1 (stereo not given)", "System": "CAKI-1 renal", "TGI": "> 100 µM"}
{"Compound": "COC1OC(C)C(OC(=O)C(C)(C)C)C(C)(O)C1O (stereo not given)", "System": "CAKI-1 renal", "TGI": "> 100 µM"}
{"Compound": "O=S(=O)(Nc1ccccc1S(=O)(=O)c1ccccc1)c1ccccc1", "System": "CAKI-1 renal", "TGI": "> 100 µM"}
{"Compound": "CCCCCN(CCCCC)C(=O)[C@@H](CCC(=O)OCc1ccccc1)NC(=O)c1cc2ccccc2[nH]1", "System": "CAKI-1 renal", "TGI": "> 100 µM"}

Give measured TGI for every item shown.
1. COc1cc(/C=C2\NC(=O)N(/C=C3\C(=O)Oc4ccccc4C3=O)C2=O)ccc1O
2. COc1cc(C2C(C(=O)O)=C(C)Oc3cc4c(cc32)OCO4)cc(OC)c1OC (stereo not given)
3. C/C=C/C=C/[C@H]1Cc2cc(O)cc(O)c2O1
4. CS(=O)(=O)c1ccc(C(F)(F)F)cc1NC(=O)Nc1cnc(Oc2ccc(-c3cc(Cl)cnc3N)cc2)nc1
5. Cc1ccc(C(=O)/C=C/c2ccccc2Cl)cc1

1: > 100 µM; 2: > 100 µM; 3: > 100 µM; 4: 22.4 µM; 5: 34.6 µM

###

# Tested on: SK-MEL-2 melanoma
# Experiment Notes: NCI tumour cell line growth inhibition, 48 h
Readout Kind: TGI

State recorded TGI for all listed compounds.
1. Cc1cc2c3c(ccc4ncc(c43)CN2c2ccc(NS(C)(=O)=O)cc2)[nH]1
2. N#Cc1c(N2CCOCC2)ncn(-c2ccccc2)c1=O
3. COC(=O)[C@]1(c2cc3ccccc3[nH]2)CC2CN(CC(=O)N(C)OC)C1C1OC(C)(C)OC21 (stereo partly drawn)

> 100 µM
> 100 µM
> 100 µM
